Tested on: S. aureus ATCC 25923 biofilms
protocol.summary: Anti-biofilm viability assay with redox dye, pre- and post-exposure, S. aureus ATCC 25923 biofilms
Format: cell-based, Staphylococcus aureus
test.settings: Staphylococcus aureus, ATCC25923, 50% inhibition of biofilm viability; S. aureus ATCC 25923; value in parentheses; read-out: Potency, IC50 Prior-to-biofilm formation
Listed here: items and their measured IC50.
Quick reminder: number only, in µg/mL, skip the unit.

Consider the following illustrative entries.
[[record]]
molecule = "CC(C)c1ccc2c(c1)CC[C@H]1[C@](C)(C(=O)N[C@H](Cc3c[nH]c4ccccc34)C(=O)O)CCC[C@]21C [Compound 25]"
experimental_system = "S. aureus ATCC 25923 biofilms"
readout_label = "IC50"
measured = 16.2

[[record]]
molecule = "CC(C)C[C@H](NC(=O)[C@]1(C)CCC[C@]2(C)c3ccc(C(C)C)cc3CC[C@@H]12)C(=O)O [Compound 20, N-(Abiet-8,11,13-trien-18-oyl) L-leucine]"
experimental_system = "S. aureus ATCC 25923 biofilms"
readout_label = "IC50"
measured = 25.7

[[record]]
molecule = "CC(C)c1ccc2c(c1)CC[C@H]1[C@](C)(C(=O)N[C@@H](CC3CCCCC3)C(=O)O)CCC[C@]21C [Compound 22]"
experimental_system = "S. aureus ATCC 25923 biofilms"
readout_label = "IC50"
measured = 4.2

[[record]]
molecule = "CC(C)c1ccc2c(c1)CC[C@H]1[C@](C)(C(=O)N[C@@H](Cc3ccccc3)C(=O)O)CCC[C@]21C [Compound 21]"
experimental_system = "S. aureus ATCC 25923 biofilms"
readout_label = "IC50"
measured = 15.9

[[record]]
molecule = "CC(C)c1ccc2c(c1)C(=O)C[C@H]1[C@](C)(C(=O)N[C@@H](CC3CCCCC3)C(=O)O)CCC[C@]21C [Compound 32]"
experimental_system = "S. aureus ATCC 25923 biofilms"
readout_label = "IC50"
measured = 28.3


Here is another molecule to look at.
Return IC50 for the following molecule: CC(C)c1ccc2c(c1)CC[C@H]1[C@](C)(C(=O)N[C@H](Cc3ccccc3)C(=O)O)CCC[C@]21C [Compound 31] 16.7
